// data source = patent US20110052565A1

experimental.target: T1, protein A (UniProt P38507 37-477)
T1 construct: Immobilized unconjugated on a CM5 chip in SPR; used as HRP conjugate in the ELISA; also called protein A/HRP conjugate; horseradish peroxidase-protein A conjugate
assay.remarks: SPR (Biacore 3000), protein A immobilized; KD of native VH over KD of heat-denatured/cooled VH, unfolded at 5 µM
// TRE (%) (ratio of KDn to KDref) lookup, one value per entry
Only the number, expressed in %, is required.

- binder: "huVHAm309 (other, Human VH single-domain antibody, soluble, amber codon replaced by Glu; In the phage ELISA rows the same VH stood on phage (pIII fusion); not shown: C-terminal c-Myc-His6 tag from vector pSJF2H) VH: QVQLVESGGGLIKPGGSLRLSCAASGVNFSNEGMAWVRQAPGKGLEWVSAISSSGGSTYYADSVKGRFTISRDNSKNTVYLQMNSLRAEDTAVYYCVTAQRACANSPCPGSITSWGQETMVTVSS"
  reading.unit: "%"
  TRE (%) (ratio of KDn to KDref): 93
- binder: "huVHAm304 (other, Human VH single-domain antibody, soluble, amber codons replaced by Glu; In the phage ELISA rows the same VH stood on phage (pIII fusion); not shown: C-terminal c-Myc-His6 tag from vector pSJF2H) VH: VQLVESGGGLIEPGGSLRLSCAASGFSFSDEGMAWVRQAPGKGLEWVSAISSSGGSTYYADSVKGRFTISRDNSKNTVYLQMNSLRAEDTAVYYCVRLPKQCTSPDCETEVSSWGQRTMVTVSS"
  reading.unit: "%"
  TRE (%) (ratio of KDn to KDref): 87
- binder: "huVHAm416 (other, Human VH single-domain antibody, soluble, amber codon replaced by Glu; In the phage ELISA rows the same VH stood on phage (pIII fusion); not shown: C-terminal c-Myc-His6 tag from vector pSJF2H) VH: QVQLVESGGGLIKPGGSLRLSCAASGVSFTDDCMAWVRQAPGKGLEWVSAISSSGGSTYYADSVKGRFTISRDNSKNTVYLQMNSLRAEDTAVYYCVADHTQCRQPECESQLCSWGQGTMVTVSS"
  reading.unit: "%"
  TRE (%) (ratio of KDn to KDref): 97

Below: the item to evaluate.
Q: Given huVHAm428 (other, Human VH single-domain antibody, soluble, amber codon replaced by Glu; In the phage ELISA rows the same VH stood on phage (pIII fusion); not shown: C-terminal c-Myc-His6 tag from vector pSJF2H) VH: QVQLVESGGGLIKPGGSLRLSCAASGFSLSDDCMGWVRQAPGKGLEWVSAISSSGGSTYYADSVKGRFTISRDNSKNTVYLQMNSLRAEDTAVYYCVTGNQACKHEPWPDEALLLGPRDNVTVSS , respond with its TRE (%) (ratio of KDn to KDref).
A: 86
